- Protocol notes: protein stability index of a GFP-peptide fusion (yeast GPS) (PSI 1-4); higher = more stable; sorted into four equal gates, so the index is relative within each strain
- Measurement parameters: doa10∆
Measured property: protein stability index

# annotated cases, reported protein stability index shown
Seq text	protein stability index
IAATAVASLVLARGHRV [RPL4A]	2.6
TKTILSGTDGSTIGILL [SRP72]	3
KSYYLNTVMLQGIFKNS [AAR2]	1.34

# batch size: 3; output protein stability index per entry
1. LAHYVVTAKLLGFTPGE [FAS1]
2. TVALREIRRFQKSTELL [HHT1]
3. MRSTSILTEHLGYPPIS [MTW1]

stdout:
1: 1.6; 2: 2.99; 3: 2.9

Required: protein stability index, one value per sequence below.
1. KIIEDLRQKHEFLEDFD [SMC2]
2. IRIYFTEKDDNKTNNED [NUT1]
3. KAPTKLDDPEAVSKDPL [DIS3]
4. SSVIQNYDIITASSLAH [YML103C/NUP188]

stdout:
2.96
2.82
3.35
1.69

###

- Protocol notes: protein stability index of a GFP-peptide fusion (yeast GPS) (PSI 1-4); higher = more stable; sorted into four equal gates, so the index is relative within each strain
- Measurement parameters: pdr5∆
Measured property: protein stability index
Answers are plain numbers.

Answered cases to consult:
Seq text	protein stability index
LGDMAVCFNNLVDENTD [YCS4]	2.8
KKCPFTGLVSIRGKILT [RPS11A]	1.53
GDIVRMLETAGFSMNNP [SMC3]	3.26
LISIHSRENNSEYMVFG [YJL039C/NUP192]	2.25
TAIAHSIREQVHMYHKS [SNF5]	1.92

Hi, could you look up protein stability index for each item in my list?
1. SYVAVLGMGKAVEKTLA [POP7]
2. LLHERKLLNDLALENGE [NUT1]
3. HLRKLLDGELDFDDFLK [RET1]
4. NDNIGANRSRFNNEAPP [SMB1]
5. LPIESQFVSKLVDNLNA [BRR2]
6. CNDEDKDLETLYNKIWT [ECM29]

stdout:
1. 2.17
2. 2.66
3. 2.95
4. 3.02
5. 2.34
6. 3.06

Please give protein stability index for each item listed below.
1. GPAAAIEFEYDPWNKLK [RPB3]
2. SPTSPSYSPTSPSYSPT [RPO21]
3. FGNIMDNLLEMSDHSLD [RRP6]

stdout:
1. 3.08
2. 2.91
3. 2.58

###

- Protocol notes: protein stability index of a GFP-peptide fusion (yeast GPS) (PSI 1-4); higher = more stable; sorted into four equal gates, so the index is relative within each strain
- Measurement parameters: doa10∆
Measured property: protein stability index
Answers are plain numbers.

Seq text	protein stability index
AYVAIEQVKDDGTSTEK [RPN8]	2.48
DSLISGVKQKITIQLTR [BRR2]	1.44
RRFYKNWYKSKKKAFTK [RPL3]	2.98
LFPNELYNVMGINKKKL [RPC31]	3.09
IRLANESSELNKDSIEE [CSN12]	3.22
LQLNEAEEFVAGVSHGT [SMX3]	3.36
SNNELVRTNTLTKAAIV [RPS8A]	2.84
NKDMIKNLVKVLESRVN [CSN12]	2.32

For the 2 sequences below, give their protein stability index values.
1. ATKEGVVLGVEKRATSP [PUP2]
2. IFTDAGRVYRPLFIVED [RPB2]

stdout:
1: 2.72; 2: 2.16

For every record below, what is its protein stability index?
1. IPISSETTIDDLPISST [SMC1]
2. ETLAYNSLKETLQDFHL [SNF2]

stdout:
[2.68, 2.88]

Please state, for each entry, its recorded protein stability index.
1. NGSSDASSLRFGNSLSN [YDL088C/ASM4]
2. YVPTRNTFNYDVKISND [RPN4]
3. KLRAARAKAMKFADGFL [RPS3]
4. EDEGEELTDEYLAENPD [PRP8]
5. APAVELHGNAKKAAEEA [FAS2]
6. AILLIINLTQTYGISVV [NUT1]

stdout:
[2.77, 1.85, 3.3, 3.43, 3.42, 1.53]
